Cited source: ChEMBL document CHEMBL4680318

# System: SNB-75
# METHOD: Growth inhibition of human SNB-75 cells measured after 48 hrs by sulforhodamine B assay
# Assay type: functional
Please provide measured GI50 for the entries that follow.
The reply should contain only the number, in µM.

Summary for this compound, CC(C)(O)[C@H]1Cc2c(cc(O)c3c(=O)c(-c4ccc(O)cc4)coc23)O1 : GI50 is 16.6

Sure, the documented GI50 for COc1cc([C@@H]2c3cc4c(cc3[C@@H](O[C@@H]3O[C@@H]5CO[C@@H](C)O[C@H]5[C@H](O)[C@H]3O)[C@H]3COC(=O)[C@H]23)OCO4)cc(OC)c1O [ETOPOSIDE] is 6.92

For reference, reported GI50 for CC(C)(O)[C@@H]1Cc2c(cc(O)c3c(=O)c(-c4ccc(O)cc4)coc23)O1 stands at 0.537

Lookup result for O=c1c(-c2ccc(O)cc2)coc2cc(O)cc(O)c12 ; measured GI50: 15.8
